Molecular target: Farnesyl-protein transferase (FPTase)
Assay: In vitro inhibition of ras farnesyl transferase (Ras-CVLS, [3H]FPP)
Conditions: Ras-CVLS 3.5 μM, 0.25 μM [3H]FPP; partially purified bovine or recombinant human enzyme; read-out: IC50 (concentration of the test compound which gives 50% inhibition of FPTase)
pIC50: −log10 of the molar value. Counter-ions that a name gives are not always drawn.
# maps each entry to its pIC50
readout name: pIC50

INSERT INTO results (compound, readout_name, value) VALUES
  ('CCCC[C@H]1CN(C(=O)c2cccc3ccccc23)CCN1C[C@@H](N)CS [Example 16, dihydrochloride]', 'pIC50', 8.70),
  ('COCC[C@H]1CN(C(=O)c2cccc3ccccc23)CCN1C[C@@H](N)CS [Example 12, dihydrochloride]', 'pIC50', 8.30),
  ('COCC[C@H]1CN(C(=O)c2cccc3ccccc23)CCN1C[C@@H](N)CSSC[C@H](N)CN1CCN(C(=O)c2cccc3ccccc23)C[C@@H]1CCOC', 'pIC50', 9.00),
  ('NC(CS)CN1CCN(C(=O)c2cccc3ccccc23)CC1C(=O)N1CCCCC1 (centres unmarked) [Example 30, dihydrochloride]', 'pIC50', 8.52),
  ('CC(=O)NCCCC[C@H]1CN(C(=O)c2cccc3ccccc23)CCN1C[C@@H](N)CS [Example 27, dihydrochloride]', 'pIC50', 8.46),
  ('CCCOCC[C@H]1CN(C(=O)c2cccc3ccccc23)CCN1C[C@@H](N)CS [Example 13, dihydrochloride]', 'pIC50', 8.52),
  ('CCCC[C@H]1CN(C(=O)c2cccc(C)c2C)CCN1C[C@@H](N)CS [Example 3, dihydrochloride]', 'pIC50', 8.22),
  ('N[C@@H](CS)CN1CCCN(C(=O)c2cccc3ccccc23)CC1 [Example 28, dihydrochloride]', 'pIC50', 7.68);
